Tested on: HOP-92 NSCLC
ASSAY_DETAILS: NCI-60 one-dose screen, 48 h
REPORTED_CONDITIONS: 10 µM unless noted
About 83,000 compounds went through this panel and 20% of them were active in at least one assay; those are over-represented in the sample as a whole. Active and inactive are the calls of the source. How the source made its calls: active means growth percent below 10; inactive means the rest.
Allowed answers: label 1 (active), label 0 (inactive)

What classification did `O=C(OCc1ccc2c(Cl)cc(Cl)c(O)c2n1)N1CCN(C(=O)c2cc3ccccc3[nH]2)CC1` end up with in this test?
label 0

What classification did `COc1ccc(Nc2ncc(I)c(NCCCNC(=O)C3CCC3)n2)cc1` end up with in this test?
label 1

What classification did `N#Cc1c(-c2ccccc2)cc(-c2ccccc2)n(CCCCC(=O)NO)c1=O` end up with in this test?
label 0

What classification did COc1ccc(C2[C@@H](c3ccccc3)C(=O)N2c2cc(OC)c(OC)c(OC)c2)cc1F (some centres undefined) end up with in this test?
label 0

What classification did `O=S(=O)(Nc1cc(Sc2nc3ccccc3s2)c(O)c2ccccc12)c1ccc2ccccc2c1` end up with in this test?
label 0

What classification did `COc1ccc(C/C(C)=C(\c2ccc(O)cc2)c2ccc(OCCN3CCCCC3)cc2)cc1` end up with in this test?
label 0

What classification did `CCOC(=O)C/C(=N\Nc1cc(=O)[nH]c2ccc(C)cc12)C(=O)OCC` end up with in this test?
label 0

What classification did `COc1cc(-c2cc(-c3ccc(Nc4nc(Nc5ccc(Cl)cc5)nc(Nc5ccc(Cl)cc5)n4)cc3)no2)cc(OC)c1OC` end up with in this test?
label 0

What classification did `O=C(/C=C/c1ccccc1)c1cccc2ccccc12` end up with in this test?
label 0

What classification did Cc1ccc(C2CC(c3cccc(Nc4ccncc4)c3)=Nc3c(N)nc(N)nc3N2)cc1 (centres undefined) end up with in this test?
label 0

What classification did `Cc1[nH]c(C(=O)Nc2ccccc2OC2CCN(CCN3CCOCC3)CC2)c(Cl)c1Cl` end up with in this test?
label 0

What classification did `COc1cc(OC)c2c(=O)c3c(CC=C(C)C)cc(OC)c(O)c3oc2c1` end up with in this test?
label 0

What classification did `C=C1C(=O)O[C@H]2[C@H]1CC/C(COC(=O)NCc1ccc(Cn3c(=O)sn(-c4ccccc4)c3=O)cc1)=C\CC[C@@]1(C)O[C@@H]21` end up with in this test?
label 0

What classification did `C/C(=C(\c1ccc(OCCN2CCCCCC2)cc1)c1ccc(OC(=O)c2ccccc2)cc1)c1ccc(Cl)cc1` end up with in this test?
label 0

What classification did `N#Cc1c(-c2ccc(Cl)cc2)nc(NN=Cc2ccc[nH]2)nc1N1CCOCC1` end up with in this test?
label 0

What classification did CCCC(=O)NC(c1ccc2c(c1)OCO2)c1cc(Cl)c2cccnc2c1O (centres undefined) end up with in this test?
label 0

What classification did CCNC(=O)N1CCc2c(Br)c3c(c(OC)c2C1Cc1ccc(OC)cc1)OCO3 (centres undefined) end up with in this test?
label 0

What classification did `CC(=O)c1sc(-c2ccc(F)cc2)cc1O` end up with in this test?
label 0

What classification did `Cc1ccc(-c2nc(SCC(=O)N3CCN(c4cc5c(cc4F)c(=O)c(C(=O)O)cn5C4CC4)CC3)nc(Cl)c2C#N)cc1` end up with in this test?
label 0

* * *

Tested on: OVCAR-8 ovarian
ASSAY_DETAILS: NCI-60 one-dose screen, 48 h (100 = growth as untreated, 0 = no growth, -100 = all killed)
REPORTED_CONDITIONS: 10 µM unless noted
The panel holds about 83,000 compounds, 20% with a hit somewhere; the sample as a whole holds those more often. The source made the active and inactive calls. The calls were made as follows: active = growth percent below 10; inactive = the rest.
For each record, write down the corresponding growth.

Short answer for `N#Cc1nn(-c2cc(=O)[nH]c3ccc(Br)cc23)c(N)c1C#N` : growth was 96% (inactive)

Short answer for O=C(/C=C/C12c3ccccc3C(c3ccccc31)C1C(=O)NC(=O)C12)c1ccc(Cl)cc1Cl (centres undefined) : growth was 11.1% (inactive)

Short answer for COC1/C=C/OC2(C)Oc3c(C)c(O)c4c(O)c(c(/C=N/N(c5ccccc5)c5ccccc5)c(O)c4c3C2=O)NC(=O)C(C)=C/C=C/C(C)C(O)C(C)C(O)C(C)C(OC(C)=O)C1C (centres undefined) : growth was 63.3% (inactive)

Short answer for Clc1cccc(C2Cc3cnccc3-c3[nH]c4ccncc4c32)c1 (centres undefined) : growth was 56.4% (inactive)

Short answer for `C#CCOc1ccc2nc(CCl)c(Cl)c(Nc3cccc(C(F)(F)F)c3)c2c1` : growth was 82.7% (inactive)

Short answer for O=C(NN1C(=O)CSC1c1cccc([N+](=O)[O-])c1)c1ccc(NC(=O)c2ccccn2)cc1 (centres undefined) : growth was 99.5% (inactive)

Short answer for `CN(C)c1ccc(C(=S)c2ccc(N(C)C)cc2)cc1` : growth was 88.5% (inactive)

Short answer for `c1cc(OCCN2CCCCCC2)ccc1CNc1ccc2nc(CCC3CCCCC3)[nH]c2c1` : growth was 65.6% (inactive)

Short answer for `COc1cc(/C=C/C(=O)N2CCN(C(=O)c3cc(OC)c(OC)c(OC)c3)CC2)ccc1OCCCOc1cc2c(cc1OC)C(=O)N1CCC[C@H]1C=N2` : growth was 14.1% (inactive)

Short answer for `O=C1Nc2ccc(Cl)cc2/C1=C/c1ccc[nH]1` : growth was 102% (inactive)

Short answer for `CSc1ccc2c3c(n(C[C@H](O)CO)c(=O)c2c1)-c1ccccc1C3=O` : growth was 33.3% (inactive)

Short answer for `Nc1cc(Br)cc2c1[nH]c(=O)c1ccccc12` : growth was 86.2% (inactive)

Short answer for `Cc1nc([P+](c2ccccc2)(c2ccccc2)c2ccccc2)c(N2CCCCC2)o1` : growth was 20.3% (inactive)

Short answer for `Nc1c(Cl)cc(/C=C2\C=Cc3ccccc32)cc1Cl` : growth was 104% (inactive)

Short answer for COC1C(O)CC(OC2CC(OC3CC(O[C@@H]4C(=O)c5c(cc6cc(OC7CC(OC8CC(O)C(O)C(C)O8)C(O)C(C)O7)c(C)c(O)c6c5O)CC4[C@H](OC)C(=O)O)OC(C)C3O)OC(C)C2O)OC1C (some centres undefined) : growth was 15.6% (inactive)

Short answer for `O=C(Cn1nc(-c2cccc3ccccc23)ccc1=O)NCc1cccc(Cl)c1` : growth was 39.5% [50 µM] (inactive)

Short answer for `Fc1ccc(/C=C/[C@@H]2C[C@@H](F)CCO2)cc1` : growth was 98.4% (inactive)

Short answer for C#Cc1cccc(NC(=O)C2CCCCN2C(=O)CCl)c1 (centres undefined) : growth was 2.11% [8.25 µM] (active)

Short answer for `CCOc1ccc(NC(=O)Nc2ccc(OCC)cc2)cc1` : growth was 103% (inactive)

* * *

System: K-562 leukemia
ASSAY_DETAILS: NCI-60 one-dose screen, 48 h (100 = growth as untreated, 0 = no growth, -100 = all killed)
REPORTED_CONDITIONS: 10 µM unless noted
This is part of a sample that, as a whole, favours compounds with a hit. Of some 83,000 tested, about 20% had one in any assay.
Doc: threshold 30% (exclusive). Items with growth beneath it return Met; others return Not met.

Dear colleague, could you confirm whether growth of `N#Cc1ccc(/C=C/c2cn(-c3ccccc3)nc2-c2cccc([N+](=O)[O-])c2)cc1` falls below 30%? Thanks.
Not met

Dear colleague, could you confirm whether growth of `COC(=O)/C=C1/SC(=Nc2ccc(F)cc2)N(CCc2c[nH]c3ccc(O)cc23)C1=O` falls below 30%? Thanks.
Not met

Dear colleague, could you confirm whether growth of `Nc1cc(C(=O)O)cc(-n2c(O)c(C=C3N=c4ccccc4=N3)sc2=S)c1` falls below 30%? Thanks.
Not met

Dear colleague, could you confirm whether growth of CC[C@@H](C(=O)[C@@H](C)[C@@H](O)[C@H](C)[C@@H]1O[C@@H]([C@@H](CC)C(=O)ONC(=O)c2ccccc2O)CC[C@@H]1C)C1O[C@]2(C=CC(=O)[C@]3(CC[C@@](C)([C@H]4CC[C@](O)(CC)[C@H](C)O4)O3)O2)[C@H](C)C[C@@H]1C (some centres not stated) falls below 30%? Thanks.
Met

Dear colleague, could you confirm whether growth of `Cn1cc(-c2nonc2-c2c[nH]c3ccccc23)c2cc(Br)ccc21` falls below 30%? Thanks.
Met

Dear colleague, could you confirm whether growth of `C=C(C)[C@@H]1CC[C@]2(CO)CC[C@]3(C)[C@H](CC[C@@H]4[C@@](C)(CCCN)[C@H](C(=C)C)CC[C@]43C)[C@@H]12` falls below 30%? Thanks.
Met

Dear colleague, could you confirm whether growth of Clc1cccc(C2Cc3cnccc3-c3[nH]c4ccncc4c32)c1 (configuration not stated) falls below 30%? Thanks.
Met

Dear colleague, could you confirm whether growth of `CC(C)CCC[C@@H](C)[C@H]1CC[C@H]2[C@@H]3CC=C4c5sc(Nc6cc(C(F)(F)F)cc(C(F)(F)F)c6)nc5CC[C@]4(C)[C@H]3CC[C@]12C` falls below 30%? Thanks.
Not met

Dear colleague, could you confirm whether growth of `N#Cc1nn(-c2cc(=O)[nH]c3ccc(Br)cc23)c(N)c1C#N` falls below 30%? Thanks.
Met

Dear colleague, could you confirm whether growth of CCCCO[C@@H]1C=C2[C@H]3CC(C)(C)C(=O)C[C@]3(C(=O)O[C@@H]3O[C@H](CO[C@@H]4O[C@H](CO)[C@@H](OC5OC(C)C(O)C(O)C5O)[C@H](O)[C@H]4O)[C@@H](O)[C@H](O)[C@H]3O)CC[C@@]2(C)[C@]2(C)CC[C@H]3C(C)(C)C(=O)CC[C@]3(C)[C@@H]12 (some centres not stated) falls below 30%? Thanks.
Not met

Dear colleague, could you confirm whether growth of `N#C/C(=C\c1ccc(-c2cccc(Cl)c2)o1)C(=O)Nc1ncc(Cc2ccc(Cl)cc2)s1` falls below 30%? Thanks.
Not met

Dear colleague, could you confirm whether growth of `O=C(Cc1ccc(/C=C/C(=O)c2ncc[nH]2)cc1)Nc1cc(F)c(F)c(F)c1` falls below 30%? Thanks.
Met

Dear colleague, could you confirm whether growth of `N=C(N)c1ccc(OCCSCCOc2ccc(C(=N)N)cc2)cc1` falls below 30%? Thanks.
Not met

Dear colleague, could you confirm whether growth of OC1(c2ccccc2)c2ccccc2N(c2ccccc2)c2ccc(Cl)cc21 (configuration not stated) falls below 30%? Thanks.
Met

Dear colleague, could you confirm whether growth of O=C(/C=C/C12c3ccccc3C(c3ccccc31)C1C(=O)NC(=O)C12)c1ccc(Cl)cc1Cl (configuration not stated) falls below 30%? Thanks.
Met

Dear colleague, could you confirm whether growth of OC1CSSC1Cn1cnc2c(Nc3ccc(OCc4cccc(F)c4)c(Cl)c3)ncnc21 (configuration not stated) falls below 30%? Thanks.
Met

Dear colleague, could you confirm whether growth of `Cc1ccc(Cc2cnc(NC(=O)/C=C/c3ccc(C)o3)s2)cc1` falls below 30%? Thanks.
Met
